Each recorded value in this set is attributed to paper PMC10514301.

PROCEDURE_TEXT: Cytotoxicity in RD cells
Assay type: cell-based
ASSAY_CONDITIONS: human
MEASURED_PROPERTY: CC50

>>> test_value("CCC(CC)COC(=O)[C@H](C)N[P@](=O)(OC[C@H]1O[C@@](C#N)(c2ccc3c(N)ncnn23)[C@H](O)[C@@H]1O)Oc1ccccc1")
"1570 nM"
